Reference for the values: patent US20050148553A1

protocol-summary: Pharmacokinetics and tolerability of intravenous tigecycline in humans
Type: in vivo, human
condition: human, in vivo; intravenous, humans; read-out: volume of distribution at steady state

compound: CN(C)c1cc(NC(=O)CNC(C)(C)C)c(O)c2c1C[C@H]1C[C@H]3[C@H](N(C)C)C(O)=C(C(N)=O)C(=O)[C@@]3(O)C(O)=C1C2=O [Tigecycline]
Vd: 7 to 14 L/kg

----------
protocol-summary: Tigecycline in human serum, tissue and synovial fluid after one intravenous 100 mg dose (LC/MS/MS)
Assay type: in vivo
condition: human, synovial fluid, intravenous, 100 mg, synovial fluid, 8 Hour; read-out: Calculated Concentration, synovial fluid
value-type: concentration at 8 h (ng/mL)

molecule: CN(C)c1cc(NC(=O)CNC(C)(C)C)c(O)c2c1C[C@H]1C[C@H]3[C@H](N(C)C)C(O)=C(C(N)=O)C(=O)[C@@]3(O)C(O)=C1C2=O [Tigecycline]
measured: 70.9

----------
protocol-summary: Pharmacokinetics and tolerability of intravenous tigecycline in humans
Assay type: in vivo, human
condition: human, in vivo; intravenous, humans
value-type: half-life

molecule: CN(C)c1cc(NC(=O)CNC(C)(C)C)c(O)c2c1C[C@H]1C[C@H]3[C@H](N(C)C)C(O)=C(C(N)=O)C(=O)[C@@]3(O)C(O)=C1C2=O [Tigecycline]
measured: 40 to 60 h
